From: patent US9994547B2

- experimental-system: Full length human TBK1 (Homo sapiens (Human))
- Sequence (Q9UHD2 whole entry): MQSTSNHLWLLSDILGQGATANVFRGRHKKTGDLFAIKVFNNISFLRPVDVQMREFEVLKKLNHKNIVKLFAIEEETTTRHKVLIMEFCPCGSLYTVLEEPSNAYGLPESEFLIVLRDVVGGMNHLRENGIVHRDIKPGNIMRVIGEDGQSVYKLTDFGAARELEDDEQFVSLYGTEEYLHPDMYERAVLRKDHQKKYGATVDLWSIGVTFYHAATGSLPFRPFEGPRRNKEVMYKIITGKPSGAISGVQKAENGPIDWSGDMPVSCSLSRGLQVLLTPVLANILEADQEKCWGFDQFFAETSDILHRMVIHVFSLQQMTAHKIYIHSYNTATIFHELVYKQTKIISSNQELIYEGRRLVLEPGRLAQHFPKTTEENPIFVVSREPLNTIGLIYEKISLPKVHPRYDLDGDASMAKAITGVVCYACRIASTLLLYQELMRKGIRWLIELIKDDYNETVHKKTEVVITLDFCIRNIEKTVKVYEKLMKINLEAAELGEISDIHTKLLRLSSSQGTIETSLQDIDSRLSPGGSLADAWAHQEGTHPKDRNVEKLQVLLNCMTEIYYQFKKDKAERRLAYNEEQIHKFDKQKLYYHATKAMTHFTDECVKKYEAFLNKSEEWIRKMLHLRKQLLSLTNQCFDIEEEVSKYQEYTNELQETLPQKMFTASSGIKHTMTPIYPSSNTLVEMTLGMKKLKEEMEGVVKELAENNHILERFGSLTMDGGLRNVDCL
- procedure-text: Inhibition of TBK1 Enzyme (Example A)
- Type: biochemical
- measurement-context: -log(IC50), IC50 molar; 3 nM TBK1, 25 μM ATP, 60 min RT
Lab note: cut-off is 7. Strictly less in TBK1 Inhibition (pIC50) is yes. Exactly 7 or more is no.

1. N#Cc1ncc(-c2cnc(NC(=O)C3CC3)cn2)cc1NCC(=O)N1CCC[C@@H]1C(F)(F)F [Example 48] = no
2. CC[C@@H](Nc1cc(-c2cnc(NC(=O)C3CC3)cn2)ccc1C#N)C(=O)N(C)C [Example 26] = no
3. N#Cc1ncc(-c2cnc(NC(=O)C3CC3)cn2)cc1NCC(=O)N1C[C@H](CO)C[C@H]1C(F)(F)F [Example 113] = no
4. C[C@H](Nc1cc(-c2cnc(NC(=O)[C@H]3C[C@@H]3C)cn2)cnc1C#N)C(=O)N(C)C [Example 106] = no
5. C[C@H](Nc1cc(-c2cnc(NC(=O)C3CC3)cn2)cnc1C#N)C(=O)N1CCC[C@@H]1C#N [Example 55] = no
6. N#Cc1ncc(-c2cnc(NC(=O)C3CC3)cn2)cc1NCC(=O)N1CCC(C#N)C1 (centres unmarked) [Example 102] = yes
7. C[C@@H](Nc1cc(-c2cnc(NC(=O)C3CC3)cn2)cnc1C#N)C(=O)N(C)C [Example 30] = yes
8. N#Cc1ncc(-c2cnc(NC(=O)C3CC3)cn2)cc1NCC(=O)N1CCOC1C(F)(F)F (centres unmarked) [Example 64] = no
9. CCC(C#N)N(C)C(=O)CNc1cc(-c2cnc(NC(=O)C3CC3)cn2)cnc1C#N (centres unmarked) [Example 92] = yes
10. CCN(C)C(=O)[C@H](C)Nc1cc(-c2cnc(NC(=O)C3CC3)cn2)cnc1C#N [Example 112] = no
11. C[C@H](Nc1cc(-c2cnc(NC(=O)C3CC3CO)cn2)cnc1C#N)C(=O)N(C)CC(F)F (some centres unmarked) [Example 146] = no
12. CC(Nc1cc(-c2cnc(NC(=O)C3CC3)cn2)ccc1C#N)C(=O)N(C)C (centres unmarked) [Example 3] = no
13. C[C@H](Nc1cc(-c2cnc(NC(=O)C3CC3)cn2)cnc1C#N)C(=O)N1CC[C@H](F)C1 [Example 139] = no
14. N#Cc1ncc(-c2cnc(NC(=O)C3CC3)cn2)cc1NCC(=O)N(CCCO)CC(F)(F)F [Example 90] = yes
15. CC(C#N)NC(=O)CNc1cc(-c2cnc(NC(=O)C3CC3)cn2)cnc1C#N (centres unmarked) [Example 59] = yes
16. N#Cc1ncc(-c2cnc(NC(=O)C3CC3)cn2)cc1NCC(N)=O [Example 121] = yes
17. C[C@H](Nc1cc(-c2cnc(NC(=O)C3CC3)cn2)cnc1C#N)C(=O)N(C)CC(F)F [Example 53] = no
18. CC1CC1C(=O)Nc1cnc(-c2cnc(C#N)c(N[C@@H](C)C(=O)N(C)CC(F)F)c2)cn1 (some centres unmarked) [Example 86] = no
19. CN(C)C(=O)[C@H](CC(F)F)Nc1cc(-c2cnc(NC(=O)C3CC3)cn2)cnc1C#N [Example 80] = no
20. C[C@H](O)[C@@H](Nc1cc(-c2cnc(NC(=O)C3CC3)cn2)cnc1C#N)C(=O)N(C)C [Example 38] = yes
21. CC(CO)N(C)C(=O)CNc1cc(-c2cnc(NC(=O)C3CC3)cn2)ccc1C#N (centres unmarked) [Example 133] = no
22. CN(Cc1cnccn1)C(=O)CNc1cc(-c2cnc(NC(=O)C3CC3)cn2)cnc1C#N [Example 76] = yes
23. CC(C)C(Nc1cc(-c2cnc(NC(=O)C3CC3)cn2)ccc1C#N)C(=O)N(C)C (centres unmarked) [Example 5] = no
